# TEST SYSTEM: Lactobacillus rhamnosus GUS (LrGUS) (Lacticaseibacillus rhamnosus)
# METHOD: In vitro inhibition assay (pNPG hydrolysis)
# Type: biochemical
# MEASUREMENT CONTEXT: pH 7.5; pNPG 900 µM; read-out: UNC10201652 (IC50, nM) pH 7.5
MEASURED PARAMETER: IC50

# input // map C1CCc2c(c(N3CCOCC3)nc3sc4c(N5CCNCC5)nnnc4c23)C1 to recorded IC50 (system: Lactobacillus rhamnosus GUS (LrGUS) (Lacticaseibacillus rhamnosus))
# output > 100000 nM

----------
# TEST SYSTEM: Streptococcus agalactiae GUS (SaGUS) (Streptococcus agalactiae serotype V, UniProt Q8E0N2)
# Construct: 6x His; made in house
# Sequence (Q8E0N2 whole entry): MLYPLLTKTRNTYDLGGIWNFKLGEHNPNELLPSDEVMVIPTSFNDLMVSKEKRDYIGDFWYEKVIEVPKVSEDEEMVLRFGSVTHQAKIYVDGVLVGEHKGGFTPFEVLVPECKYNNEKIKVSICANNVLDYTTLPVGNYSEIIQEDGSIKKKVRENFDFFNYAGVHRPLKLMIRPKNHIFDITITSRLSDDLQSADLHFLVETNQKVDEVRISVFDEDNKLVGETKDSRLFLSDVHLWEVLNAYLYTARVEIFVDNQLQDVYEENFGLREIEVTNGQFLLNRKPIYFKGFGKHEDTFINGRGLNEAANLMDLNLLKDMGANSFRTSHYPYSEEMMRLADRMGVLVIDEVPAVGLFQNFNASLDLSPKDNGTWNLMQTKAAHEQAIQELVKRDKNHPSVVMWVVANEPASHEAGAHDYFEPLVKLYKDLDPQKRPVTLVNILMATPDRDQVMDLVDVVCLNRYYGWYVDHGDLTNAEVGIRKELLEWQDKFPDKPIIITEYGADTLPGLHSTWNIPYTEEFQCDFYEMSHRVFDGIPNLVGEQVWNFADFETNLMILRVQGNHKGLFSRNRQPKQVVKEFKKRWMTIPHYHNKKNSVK
# METHOD: In vitro inhibition assay (pNPG hydrolysis)
# Assay type: biochemical
# MEASUREMENT CONTEXT: pH 6.5; pNPG 900 µM; 1 hour end point; read-out: UNC10201652 (IC50, nM) pH 6.5
MEASURED PARAMETER: IC50 (nM)
Give bare numbers, in nM.

# input Which IC50 is reported for this molecule? C1CCc2c(c(N3CCOCC3)nc3sc4c(N5CCNCC5)nnnc4c23)C1
# output 450

----------
# TEST SYSTEM: Lactobacillus rhamnosus GUS (LrGUS) (Lacticaseibacillus rhamnosus, UniProt A0A2A5L2J1)
# Sequence (A0A2A5L2J1 1-603): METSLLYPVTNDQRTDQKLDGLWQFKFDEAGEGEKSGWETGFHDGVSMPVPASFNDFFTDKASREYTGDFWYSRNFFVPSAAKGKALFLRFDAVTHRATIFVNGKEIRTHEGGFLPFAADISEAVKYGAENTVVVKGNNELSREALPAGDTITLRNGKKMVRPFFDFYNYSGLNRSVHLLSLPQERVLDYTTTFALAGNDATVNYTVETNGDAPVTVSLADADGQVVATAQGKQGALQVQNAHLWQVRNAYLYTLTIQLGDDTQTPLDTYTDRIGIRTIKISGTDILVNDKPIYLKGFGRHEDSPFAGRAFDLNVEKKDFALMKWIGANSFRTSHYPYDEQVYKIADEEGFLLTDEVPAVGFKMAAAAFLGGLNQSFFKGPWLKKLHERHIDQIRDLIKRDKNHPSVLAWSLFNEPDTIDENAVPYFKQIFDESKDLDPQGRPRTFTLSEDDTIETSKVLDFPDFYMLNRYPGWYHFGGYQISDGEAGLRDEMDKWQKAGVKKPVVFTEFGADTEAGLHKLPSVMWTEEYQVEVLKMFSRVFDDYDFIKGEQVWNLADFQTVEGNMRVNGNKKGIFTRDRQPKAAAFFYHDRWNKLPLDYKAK
# METHOD: In vitro inhibition assay (pNPG hydrolysis)
# Assay type: biochemical
# MEASUREMENT CONTEXT: read-out: Inhibitor 1 (IC50, nM) pH 7.5; pH 7.5; pNPG 900 µM
MEASURED PARAMETER: IC50

# input // map CCOc1ccc(NC(=S)N(CCO)Cc2cc3cc(C)cc(C)c3[nH]c2=O)cc1 [Inhibitor 1] to recorded IC50 (system: Lactobacillus rhamnosus GUS (LrGUS) (Lacticaseibacillus rhamnosus, UniProt A0A2A5L2J1))
# output > 100000 nM

----------
# TEST SYSTEM: Clostridium perfringens GUS (CpGUS) (Clostridium perfringens, UniProt Q8VNV4)
# METHOD: biochemical
# Format: biochemical
# MEASUREMENT CONTEXT: pH 7.5; read-out: UNC10201652 (IC50, nM) pH 7.5
MEASURED PARAMETER: IC50
Param answer (str): number followed by unit.

# input Which IC50 is reported for this compound? C1CCc2c(c(N3CCOCC3)nc3sc4c(N5CCNCC5)nnnc4c23)C1
# output 26 nM

----------
# TEST SYSTEM: Bacteroides fragilis GUS (BfGUS) (Bacteroides fragilis)
# Sequence (Q5LIC7 whole entry): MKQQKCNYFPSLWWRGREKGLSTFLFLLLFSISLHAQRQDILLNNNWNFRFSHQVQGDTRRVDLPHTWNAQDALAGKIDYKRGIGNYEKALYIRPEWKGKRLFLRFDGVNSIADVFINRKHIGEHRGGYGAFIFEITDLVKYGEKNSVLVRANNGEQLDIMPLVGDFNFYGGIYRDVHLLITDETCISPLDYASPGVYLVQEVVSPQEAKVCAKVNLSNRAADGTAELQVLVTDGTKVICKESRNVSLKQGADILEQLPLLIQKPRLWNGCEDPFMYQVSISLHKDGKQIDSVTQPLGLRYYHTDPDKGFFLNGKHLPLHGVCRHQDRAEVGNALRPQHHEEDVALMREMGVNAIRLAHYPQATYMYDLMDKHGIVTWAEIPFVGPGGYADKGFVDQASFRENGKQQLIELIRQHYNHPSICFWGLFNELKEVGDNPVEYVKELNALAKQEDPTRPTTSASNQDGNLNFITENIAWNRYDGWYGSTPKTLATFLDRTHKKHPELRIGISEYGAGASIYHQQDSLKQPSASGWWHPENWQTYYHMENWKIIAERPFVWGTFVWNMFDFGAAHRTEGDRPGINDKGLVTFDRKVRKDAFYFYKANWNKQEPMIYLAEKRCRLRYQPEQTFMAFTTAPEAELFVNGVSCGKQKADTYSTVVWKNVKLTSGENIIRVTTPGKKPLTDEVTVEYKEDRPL
# METHOD: In vitro inhibition assay (pNPG hydrolysis)
# Format: biochemical
# MEASUREMENT CONTEXT: pH 7.5; pNPG 900 µM; read-out: UNC10201652 (IC50, nM) pH 7.5
MEASURED PARAMETER: IC50

# input Which IC50 is reported for this compound? C1CCc2c(c(N3CCOCC3)nc3sc4c(N5CCNCC5)nnnc4c23)C1
# output > 100000 nM

----------
# TEST SYSTEM: UniProt:Q8VNV4
# METHOD: biochemical
# Assay type: biochemical
# MEASUREMENT CONTEXT: Inhibitor 1 (IC50, nM) pH 6.5
MEASURED PARAMETER: IC50

# input Which IC50 is reported for this compound? CCOc1ccc(NC(=S)N(CCO)Cc2cc3cc(C)cc(C)c3[nH]c2=O)cc1
# output > 100000 nM

Taken from paper PMC6351562.
